system-tested: BTK protein (Homo sapiens, UniProt Q06187)
Construct: endogenous in cells; host or cells: TMD-8 cells
Sequence (Q06187 whole entry): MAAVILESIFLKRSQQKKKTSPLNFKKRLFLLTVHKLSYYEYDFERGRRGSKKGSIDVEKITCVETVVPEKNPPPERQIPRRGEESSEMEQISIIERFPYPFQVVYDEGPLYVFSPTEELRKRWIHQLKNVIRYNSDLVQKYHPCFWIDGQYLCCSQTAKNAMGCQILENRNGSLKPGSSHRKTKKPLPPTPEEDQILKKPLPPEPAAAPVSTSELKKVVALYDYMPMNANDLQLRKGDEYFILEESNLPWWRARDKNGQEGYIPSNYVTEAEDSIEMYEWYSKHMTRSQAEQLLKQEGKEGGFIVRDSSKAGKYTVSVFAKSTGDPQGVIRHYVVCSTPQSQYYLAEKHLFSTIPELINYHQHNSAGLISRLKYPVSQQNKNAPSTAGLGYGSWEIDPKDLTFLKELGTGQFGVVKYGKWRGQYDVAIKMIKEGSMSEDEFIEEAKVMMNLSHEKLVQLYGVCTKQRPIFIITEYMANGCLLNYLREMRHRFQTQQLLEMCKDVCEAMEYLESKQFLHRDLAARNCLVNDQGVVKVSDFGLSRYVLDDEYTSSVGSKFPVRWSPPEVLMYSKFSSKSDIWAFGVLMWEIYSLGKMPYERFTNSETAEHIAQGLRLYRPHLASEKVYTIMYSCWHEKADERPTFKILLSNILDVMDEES
test-summary: Measurement of BTK protein degradation ability in TMD-8 cells (Western blotting)
Type: cell-based
recorded-conditions: compound 10 nM, harvested after 24 hours
Protocol: TMD-8, RAMOS, or 293T BTK MUT (C481S) cells were treated with the synthesized compounds, and then the amount of BTK protein present in the cells was measured using Western blotting detection. The protocol for the experiment conducted using TMD-8 cells was as follows: [Culture] […] [Western blotting detection method] […] The samples were washed 5 times with 0.5% TBST for 5 minutes each and detected with LI-COR's Odyssey. […]
readout-name: BTK degradation (%) 10 nM
One number for each entry, in %.

Below: 2 molecules and their reported BTK degradation (%) 10 nM.
# molecule, system-tested, quantitative-readout
data = [
    ("Cc1cc(-c2ccnc(Nc3ccc(N4CCC(CN5CCN(c6ccc(NC7CCC(=O)NC7=O)cn6)CC5)CC4)cc3)n2)ccc1CNC(=O)c1cnn(C(C)C)c1 (stereo not drawn)", "BTK protein (Homo sapiens, UniProt Q06187)", 95.5),
    ("Cc1cc(-c2ccnc(Nc3ccc(N4CCN(CC5CN(c6ccc7c(n6)CN(C6CCC(=O)NC6=O)C7=O)C5)CC4)cc3)n2)ccc1CNC(=O)N1CC(OC(C)C)C1 (stereo not drawn)", "BTK protein (Homo sapiens, UniProt Q06187)", 95),
]

Now look at this entry.
Exercise: Fill in: BTK degradation (%) 10 nM of Cc1c(NC(=O)N2CC(OC(C)C)C2)cc(F)cc1-c1ccnc(Nc2ccc3c(c2)CN(CC2CCN(c4ccc5c(c4)C(=O)N(C4CCC(=O)NC4=O)C5=O)CC2)CC3)n1 (stereo not drawn) is ___
Key: −3.5
